TARGET ENTITY: HIV-1 protease (Human immunodeficiency virus type 1 group M subtype B, UniProt P04585)
Construct: fluorometric HIV-1 protease assay
METHOD: Protease inhibition assay (fluorometric method)

COMPOUND	EC50
CCC1(c2cccc(OC(=O)Nc3ccc(Cl)cc3)c2)CCCCN(C)C1=O (stereo not shown)	> 249 µM

---

TARGET ENTITY: HIV-1 integrase (Human immunodeficiency virus type 1 group M subtype B)
pIC50: −log10 of the molar value.
OBSERVABLE: pIC50

MOLECULE	OBSERVED VALUE
CCC1(c2cccc(OC(=O)Nc3ccc(Cl)cc3)c2)CCCCN(C)C1=O (stereo not shown)	< 3.60
